- tested on: OAT-K1 (Solute carrier organic anion transporter family member 1A3) (Rattus norvegicus, UniProt P70502)
- Sequence (P70502 whole entry): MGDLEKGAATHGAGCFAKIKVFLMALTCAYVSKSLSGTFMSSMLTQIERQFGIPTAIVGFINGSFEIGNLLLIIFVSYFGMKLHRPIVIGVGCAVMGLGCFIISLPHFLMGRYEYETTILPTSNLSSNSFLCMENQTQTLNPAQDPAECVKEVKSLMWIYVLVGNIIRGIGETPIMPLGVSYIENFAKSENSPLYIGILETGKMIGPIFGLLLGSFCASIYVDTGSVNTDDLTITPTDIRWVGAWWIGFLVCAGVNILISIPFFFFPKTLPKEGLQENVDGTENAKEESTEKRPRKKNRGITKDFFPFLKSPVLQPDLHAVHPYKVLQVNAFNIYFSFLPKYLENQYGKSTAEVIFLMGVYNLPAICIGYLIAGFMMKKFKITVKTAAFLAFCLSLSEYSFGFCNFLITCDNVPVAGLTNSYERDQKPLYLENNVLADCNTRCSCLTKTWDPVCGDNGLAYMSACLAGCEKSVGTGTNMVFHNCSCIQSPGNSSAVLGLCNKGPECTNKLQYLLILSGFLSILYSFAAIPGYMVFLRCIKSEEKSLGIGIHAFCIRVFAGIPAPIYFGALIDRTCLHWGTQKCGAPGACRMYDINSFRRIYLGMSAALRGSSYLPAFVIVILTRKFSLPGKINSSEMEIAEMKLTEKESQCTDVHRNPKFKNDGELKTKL
- protocol text: TP_TRANSPORTER: uptake in OAT-K1-expressing MDCK cells
- Format: functional, cell-based
- condition parameters: dog
Assign Km to each entry below.
Give bare numbers, in µM.

// batch mode: one Km value per listed entry
1. C[C@@H]1Cc2c(Cl)cc(C(=O)N[C@@H](Cc3ccccc3)C(=O)O)c(O)c2C(=O)O1 [3R14S-OCHRATOXIN A]
2. Cc1cn([C@H]2C[C@H](N=[N+]=[N-])[C@@H](CO)O2)c(=O)[nH]c1=O [ZIDOVUDINE]

1: 5.6; 2: 64.3

Values from ChEMBL document CHEMBL2074119
